Target: EGF-R (Homo sapiens)
Construct: another EGFR over-expressing human epidermoid carcinoma cell line, A431 (ATCC CRL 1555); endogenous in cells; host or cells: A431 (ATCC CRL 1555)
Assay: Cell-free screening assay for EGF-R kinase activity (EGFR immobilized from A431 lysate)
Type: biochemical
Conditions: ATP conc. 1 μM; read-out: IC50, EGF-R kinase activity in a cell free system
property-label: IC50 (nM)
The figure you give is taken to be in nM; do not add the unit.

May I ask what IC50 has been recorded for O=C(O)c1cc(N(Cc2ccccc2O)Cc2cc(O)ccc2O)ccc1O ? 80

----------
Target: EGF-R (Homo sapiens, UniProt P00533)
Construct: another EGFR over-expressing human epidermoid carcinoma cell line, A431 (ATCC CRL 1555); endogenous in cells; host or cells: A431 (ATCC CRL 1555)
Sequence (P00533 25-1210): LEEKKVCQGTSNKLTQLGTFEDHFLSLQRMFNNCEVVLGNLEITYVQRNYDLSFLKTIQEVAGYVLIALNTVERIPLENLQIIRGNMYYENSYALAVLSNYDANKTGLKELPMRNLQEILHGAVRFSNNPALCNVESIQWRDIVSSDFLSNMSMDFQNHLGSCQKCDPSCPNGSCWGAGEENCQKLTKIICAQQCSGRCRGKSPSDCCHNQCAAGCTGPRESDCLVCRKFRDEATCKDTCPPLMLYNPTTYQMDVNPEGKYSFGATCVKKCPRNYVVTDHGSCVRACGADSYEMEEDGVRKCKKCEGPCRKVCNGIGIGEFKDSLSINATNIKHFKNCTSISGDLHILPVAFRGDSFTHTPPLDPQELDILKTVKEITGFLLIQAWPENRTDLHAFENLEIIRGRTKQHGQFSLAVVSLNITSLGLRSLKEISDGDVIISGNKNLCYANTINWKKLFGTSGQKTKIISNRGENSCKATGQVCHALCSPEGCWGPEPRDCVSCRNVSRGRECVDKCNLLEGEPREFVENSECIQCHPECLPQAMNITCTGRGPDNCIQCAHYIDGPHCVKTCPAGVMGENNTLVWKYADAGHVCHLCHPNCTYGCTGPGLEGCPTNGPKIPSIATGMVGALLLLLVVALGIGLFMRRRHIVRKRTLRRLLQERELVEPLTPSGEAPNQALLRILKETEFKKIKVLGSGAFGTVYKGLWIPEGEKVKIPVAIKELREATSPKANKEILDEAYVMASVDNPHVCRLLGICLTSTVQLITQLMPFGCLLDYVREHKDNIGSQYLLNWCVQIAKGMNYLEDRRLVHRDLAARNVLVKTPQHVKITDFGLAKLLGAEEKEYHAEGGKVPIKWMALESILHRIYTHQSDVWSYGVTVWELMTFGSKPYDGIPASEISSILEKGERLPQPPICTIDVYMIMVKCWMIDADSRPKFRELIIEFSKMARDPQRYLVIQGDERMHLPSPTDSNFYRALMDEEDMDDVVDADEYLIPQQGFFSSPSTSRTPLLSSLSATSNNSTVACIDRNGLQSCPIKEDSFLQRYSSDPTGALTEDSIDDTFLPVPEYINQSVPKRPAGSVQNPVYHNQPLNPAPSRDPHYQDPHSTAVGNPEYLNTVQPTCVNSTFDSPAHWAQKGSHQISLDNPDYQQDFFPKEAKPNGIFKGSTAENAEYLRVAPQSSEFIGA
Assay: Cell-free screening assay for EGF-R kinase activity (EGFR immobilized from A431 lysate)
Type: biochemical
Conditions: ATP conc. 3 μM; read-out: IC50, EGF-R kinase activity in a cell free system
property-label: pIC50
Convention used: pIC50 is expressed as -log10 of the molar concentration.

Form field: pIC50 recorded for O=C(O)c1cc(N(Cc2ccccc2O)Cc2cc(O)ccc2O)ccc1O [Lavendustin A] with EGF-R (Homo sapiens, UniProt P00533) (enter value) 7.00

----------
Biological target: EGF-R (Homo sapiens, UniProt P00533)
Construct: another EGFR over-expressing human epidermoid carcinoma cell line, A431 (ATCC CRL 1555); endogenous in cells; host or cells: A431 (ATCC CRL 1555)
Assay: Cell-free screening assay for EGF-R kinase activity (EGFR immobilized from A431 lysate)
Assay type: biochemical
Conditions: ATP conc. 10 μM; read-out: IC50, EGF-R kinase activity in a cell free system
property-label: IC50 (µM)
The figure you give is taken to be in µM; do not add the unit.

May I ask what IC50 has been recorded for O=C(O)c1cc(N(Cc2ccccc2O)Cc2cc(O)ccc2O)ccc1O [Lavendustin A] ? 55
